System: MS2 coat protein
Assay: apparent KD of MS2 coat protein; designed switch direction (-1 OFF switch, 1 ON switch): -1; higher = weaker reporter binding
Conditions: input ligand: FMN 200 uM
Rule: apparent KD of MS2 coat protein under 20 nM gives label 0, otherwise label 1.

[[record]]
sequence_input = "AGCUGUGGCCGAGGAUAUCCACAUGAGGAUCACCCAUGUGAAUACCCAAUUAAGGGAUAACCGUGGGAGAAGGCGGUCUCAGCA [Eli eng2 - 048] (Eterna round: R96, puzzle: Exclusion NG 2)"
label_class = "label 1"

[[record]]
sequence_input = "CUGCUCCGUGUAGGAUAUGCGCGCAACCAACGCGCAGAAGGACAUGAGGAUCACCCAUGUAUGUUAUUAUCACGUGAAGCGCAA [Design 31] (Eterna round: R96, puzzle: Exclusion NG 1)"
label_class = "label 0"

[[record]]
sequence_input = "AAAUUCAGAGGAUAUGCGCAUAGAUAAGACUUUUUUUCUUAACAUGAGGAUCACCCAUGUAGAAGGCUGUAAAC [Ex2 #61] (Eterna round: R97, puzzle: Exclusion 2)"
label_class = "label 0"

[[record]]
sequence_input = "CUGUUCCAUGUAGGAUAUGCAUAUUCUCAUUAUGCAGAAGGACAUGAGGAUCACCCAUGUAUGUUAUUAUUAUAUGUUACAUGU [Design 3] (Eterna round: R96, puzzle: Exclusion NG 1)"
label_class = "label 1"

[[record]]
sequence_input = "UAGAAAGGUAAGGAUAUCCUUGAGAAAGAAAGAGGAGAAGGUACCACAUGAGGAUCACCCAUGUGGCUCUCAAA [jl-ex6-4.57 Nando mod] (Eterna round: R97, puzzle: Exclusion 6)"
label_class = "label 0"


---

Test system: K4 kissing-loop RNA reporter
Experiment: apparent KD of K4 kissing-loop reporter; higher = weaker reporter binding
Conditions: Eterna round: R107; input ligand: none
Rule: apparent KD of K4 kissing-loop reporter under 200 nM gives F, otherwise T.

[[record]]
sequence_input = "UUUUUAUAAGAGGAUACCAGUACAAAUAAAGUACAUUAAUAGUAGAGUGAUGUUCUAAAGUACCCUUGGCAGCUUAGAGUAAGUU [ExTheophylB.C]"
label_class = "F"

[[record]]
sequence_input = "AAACAUCACUGGGAGUGAUGUUCUCAGUGACGAGGACCGGUACGGCCGCCACUCGCGAGAGAUAUAGUCAAGUAAUGACUGCAUU [Excl Tryptophan A V9]"
label_class = "T"

[[record]]
sequence_input = "AUUUGUUUAUGUGAUACCAGACUAAGCAGUGAUGUUGCUUUUAUUUUUGAAUUUUAAAUAGUCCCUUGGCAGCACUAUGUAUUUA [JR_SSTheophyB_Sub010]"
label_class = "F"

[[record]]
sequence_input = "UGAUAGGACAGAAGGAGCGGAAUCCUGUCAAAGACAGGAAAAUAAAUAAAAGGAGUGAUGUUCCAGGUAGGUCGCUGUCCUAUCU [ArgBX 19 #SwitchBubble #StaticStem]"
label_class = "T"

[[record]]
sequence_input = "UAACUGCAGUGAUGUUGCAGAUGUCCUGACUAGGAUAUCAGGAAACUGAGAAGGAGUCCCUUCUACACUGCAGAGAAGGAGGACA [[K1]-[K2]-[F1]'-[F1]-[F2]-[F2]'-[K]'-[F]''_Design1]"
label_class = "F"


---

Tested on: K4 kissing-loop RNA reporter
Assay: apparent KD of K4 kissing-loop reporter; higher = weaker reporter binding
Settings: Eterna round: R107; input ligand: none
Rule: apparent KD of K4 kissing-loop reporter under 400 nM gives False, otherwise True.

[[record]]
sequence_input = "CUUGGAAGGACGGCCGCCACUCGACAGUGAUGUUGUCCGAGUUGGUAACGCAGUGAUGUUGUGUCGAGGACCGGGUCCUAGGAAU [Exclusion Tryptophan B GF 26]"
label_class = "False"

[[record]]
sequence_input = "UGAUACCAGACUGAUACCAGCAGUGAUGUUGCUGAUAAGGGUAGAGUCAAAGACUCUACCUGCCCUUGGCAGCAGUCUGGUAUCU [TheoBX 14 #SwitchBubble #StaticStem]"
label_class = "False"

[[record]]
sequence_input = "AUUUUGUUGUCAGGAUAUUAGUAUGGUUUUGGUUUGUUAGUGAUGUUGAUGGUUUGUUUAUGUAUUUAAGAAGGGAUUUAGCGGU [swwsgumullin]"
label_class = "True"

[[record]]
sequence_input = "AGUGUGCAAAAGCACACUCAGAACAAGGACAAGGAUAUCUACUAAUAGAGAAGGUGUCCUUUCCUUAGUGAUGUUAAGGAACUGA [Omei KL FMN A SS D v5]"
label_class = "True"

[[record]]
sequence_input = "AGUGAUGUUUCUUUUAAGAGUGAUGUUUUUCGAGGACCGGUACGGCCGCCACUCGAGUGAUGAGUGCGUUGUUGUGAUGUUUAGU [#12 K4 Tryptophan A Exclusion]"
label_class = "True"

[[record]]
sequence_input = "ACGUGUCACUGAAGGAGCGUCUACCGAAUACGAGUGAUGUUCGUACACCACUGAUAUAGUGGACAGGUAGGUCGCAGUGAUACGU [Arg B Ex t3]"
label_class = "False"


---

The reader will find reported apparent KD of MS2 coat protein values listed item by item below.
Test system: MS2 coat protein
Test: apparent KD of MS2 coat protein; designed switch direction (-1 OFF switch, 1 ON switch): 1; higher = weaker reporter binding
Settings: Eterna round: R95; input ligand: FMN 200 uM
RESULT TYPE: apparent KD of MS2 coat protein (nM)

[[record]]
sequence_input = "UAGUACAUGCUUUUUGUCCGUCUUAGAUAACAUGAGGAUCACCCAUGUAAGGUGAAAGUUAUAUAGUUUAGGAAGAU [JR_SHM208A_Sub056] (puzzle: Sensor for hsa-mir-208a)"
measured_on = "MS2 coat protein"
result_type = "apparent KD of MS2 coat protein"
experimental_result = 309

[[record]]
sequence_input = "UUUGGGUGGCUGGAGGAUAUCCUUGUGGUUACAUGAGGAUCACCCAUGUGCCGCGCGGUGCGCGAGGAGAAGGCUGGCGGCCGUU (puzzle: Same State 2)"
measured_on = "MS2 coat protein"
result_type = "apparent KD of MS2 coat protein"
experimental_result = 26

[[record]]
sequence_input = "ACGCAGCUGGGUGAGGAUAUCGGUGGUAAAACAUGAGGAUCACCCAUGUCCGAAGCUCGGACUUCCGAGAAGGCGCCCGGCCGCA [Atbeatve] (puzzle: Same State 2)"
measured_on = "MS2 coat protein"
result_type = "apparent KD of MS2 coat protein"
experimental_result = 14.6

[[record]]
sequence_input = "CGUCCAGCCUGAGCUGGACAAAAGCAUGUACAUGAGGAUCACCCAUGUUCAUGUACAAGCUUUUUGCUCGUCUUACA [salish99_208a_r3_091x] (puzzle: Sensor for hsa-mir-208a)"
measured_on = "MS2 coat protein"
result_type = "apparent KD of MS2 coat protein"
experimental_result = 691

[[record]]
sequence_input = "AAGUAACAUGAGGAUCACCCAUGUGAGGUGAGCGUAGGAUAUCGAGGAGGAAGGGUAGGUCGAGAAGGACGAGAAG [JR_SS1_Sub096] (puzzle: Same State 1)"
measured_on = "MS2 coat protein"
result_type = "apparent KD of MS2 coat protein"
experimental_result = 127


---

Tested on: K4 kissing-loop RNA reporter;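 further: bound reporter read as fluorescence of individual clusters on recovered sequencing chips by microscopy, with normalized cluster intensities fitted with a binding model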
Assay: apparent KD of K4 kissing-loop reporter; higher = weaker reporter binding
Settings: Eterna round: R107; input ligand: none
The reader will find reported apparent KD of K4 kissing-loop reporter values listed item by item below.
RESULT TYPE: apparent KD of K4 kissing-loop reporter (nM)

[[record]]
sequence_input = "GAGAGCCCUGUAGGAUAUGAGUCUAGUGAUGUUAGGCGGUCCAUGCGCGUGGCGCGUUAUGCCCUUUUAGAAGGACAGGGCUCUC [#2 Exclusion - FMN B Attempt #20 (HarryS)]"
measured_on = "K4 kissing-loop RNA reporter"
readout_units = "nM"
experimental_result = 80.9

[[record]]
sequence_input = "UUUUUGGAGAAUUAUAGUGAUGUUAUGAAGGAGGAUAUCUAAAGAUGGAGAAGGUUUAAUAGUUAAGGGAUGGAGGGUGGGUGGG [ExFMNA.Q]"
measured_on = "K4 kissing-loop RNA reporter"
readout_units = "nM"
experimental_result = 320

[[record]]
sequence_input = "GAUACCACGUUAGAUACCAGCUUCGUUGACUUGGGUAGUAGUCGAACUUCAGUGAUGUUGAGCCCUUGGCAGCUACAGAUGUGCG [theeternabot_exclusion_KL_Theo_B_38]"
measured_on = "K4 kissing-loop RNA reporter"
readout_units = "nM"
experimental_result = 654

[[record]]
sequence_input = "GGUGUGCCAAGUGAUGUUUGGCGUUCUCACCGAGGACCGGUACGGCCGCCACUCGUUAACUGACCAAGUAUCUUUACCUCGGAGA [theeternabot_sameState_KL_Trp_A_8]"
measured_on = "K4 kissing-loop RNA reporter"
readout_units = "nM"
experimental_result = 159

[[record]]
sequence_input = "AAUAAGGUCGCCGAUACCAGCGCGGGCAGAGCAAAGCUCUGCCCGGUAGUGAUGUUACCGCGCCCUUGGCAGCGGUGGCACGACC [Omei KL Theo B SS C v6]"
measured_on = "K4 kissing-loop RNA reporter"
readout_units = "nM"
experimental_result = 126

